Source: patent EP4664463A1

target: OR4S2 (Homo sapiens); test: cell-based; details: wild-type; read-out: Potency EC50
measurement-type: EC50 (µM)
Report the figure in µM without appending any unit label.

Field request: EC50 | item: c1ccc2scnc2c1
137

====

Molecular target: OR7D4 (Homo sapiens, UniProt Q8NG98, D296E/E302K/G299D)
Construct: expressed in transfected cells; host or cells: HEK293T cells stably expressing human RTP1S (V227I) and RTP2 (L220R)
Sequence (Q8NG98 with tags, fused parts or gaps D296E/G299D/E302K limits assumed): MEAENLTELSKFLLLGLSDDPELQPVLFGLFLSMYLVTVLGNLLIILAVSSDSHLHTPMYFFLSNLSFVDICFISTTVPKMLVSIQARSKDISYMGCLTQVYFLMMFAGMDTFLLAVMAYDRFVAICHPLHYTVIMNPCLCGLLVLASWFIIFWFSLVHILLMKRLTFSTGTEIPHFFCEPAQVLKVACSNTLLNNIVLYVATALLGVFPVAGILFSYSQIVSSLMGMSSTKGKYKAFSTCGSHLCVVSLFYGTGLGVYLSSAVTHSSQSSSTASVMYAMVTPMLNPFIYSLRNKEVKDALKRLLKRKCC
Test: cell-based
Type: cell-based
Conditions: changed C-term SEQ ID NO: 86; read-out: Potency EC50
measurement-type: pEC50
Please keep in mind that pEC50 is minus log10 of the molar concentration; only the number is needed.

What value of pEC50 has been recorded for this entry: C[C@]12CCC(=O)C[C@@H]1CC[C@@H]1[C@@H]2CC[C@]2(C)C=CC[C@@H]12
6.89
